Molecular target: Glycylpeptide N-tetradecanoyltransferase (Candida albicans (strain SC5314 / ATCC MYA-2876) (Yeast), UniProt P30418)
Sequence (P30418 whole entry): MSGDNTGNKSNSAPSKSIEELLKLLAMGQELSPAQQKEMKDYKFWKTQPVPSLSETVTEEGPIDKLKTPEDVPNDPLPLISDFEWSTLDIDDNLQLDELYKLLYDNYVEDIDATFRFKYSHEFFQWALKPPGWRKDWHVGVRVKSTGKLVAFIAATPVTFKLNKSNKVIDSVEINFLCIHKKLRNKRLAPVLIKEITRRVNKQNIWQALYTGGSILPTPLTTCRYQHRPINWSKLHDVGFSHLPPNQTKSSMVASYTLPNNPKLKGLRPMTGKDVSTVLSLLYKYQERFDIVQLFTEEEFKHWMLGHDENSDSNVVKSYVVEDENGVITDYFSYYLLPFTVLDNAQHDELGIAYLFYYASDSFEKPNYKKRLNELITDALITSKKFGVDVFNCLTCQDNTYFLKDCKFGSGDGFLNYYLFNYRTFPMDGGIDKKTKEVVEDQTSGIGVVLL
Test: Inhibitory activity against N-myristoyltransferase (NMT) of candida albicans
Non-standard residues stand in square brackets, D forms with d. Residues, ends and D or L forms follow the SMILES beside them. Cha = N[C@@H](CC1CCCCC1)C(=O)O; Aun = NCCCCCCCCCCC(=O)O
For each entry below, report its IC50 value.

Qu. Output IC50 of CC[C@H](C)[C@H](NC(=O)[C@H](CCCCN)NC(=O)[C@H](CO)NC(=O)CCCCCCCCCCN)C(N)=O (H-[Aun]SKI-NH2)
Ans. 3900 nM

Qu. // Input: "NCCCCCCc1ccc(CC(=O)N[C@@H](CO)C(=O)N[C@@H](CCCCN)C(=O)NCCC2CCCCC2)cc1" . Output its IC50 only.
Ans. 110 nM

Qu. Give a short answer stating reported IC50 for "NCCCCCc1ccc(CC(=O)N[C@@H](CO)C(=O)N[C@@H](CCCCN)C(=O)NCCC2CCCCC2)cc1" .
Ans. 190 nM

Qu. Write down IC50 measured for item NCCCCCCCCCCC(=O)N[C@@H](CO)C(=O)N[C@@H](CCCCN)C(=O)N[C@@H](CC1CCCCC1)C(N)=O (H-[Aun]SK[Cha]-NH2)
Ans. 360 nM

Qu. Given "NCCCC[C@H](NC(=O)[C@H](CO)NC(=O)Cc1ccc(C#Cc2ccc(CN)cc2)cc1)C(=O)NCCC1CCCCC1" , respond with its IC50.
Ans. > 10000 nM

Qu. Report IC50, nothing else, for this molecule: "CC(C)CNC(=O)[C@H](CCCCN)NC(=O)[C@H](CO)NC(=O)CCCCCCCCCCN"
Ans. > 10000 nM

Qu. Given the molecule NCCCCCCCCCCC(=O)N[C@@H](CO)C(=O)N[C@@H](CCCCN)C(=O)NCC(N)=O (H-[Aun]SKG-NH2) , write its reported IC50.
Ans. 16000 nM

---

So I've got a bunch of molecules here, and I need their IC50 values.
Molecular target: Peptide N-myristoyltransferase (Homo sapiens, UniProt P30419+O60551)
Test: Inhibition of human N-myristoyltransferase (NMT)
Format: protein assay
Write down the numeric answer in nM and omit the unit.

Qu. Annotate the molecule CC(C(=O)N[C@@H](CO)C(=O)N[C@@H](CCCCN)C(=O)NCCC1CCCCC1)c1ccc(CCCCCCN)cc1 (some centres undefined) with its measured IC50.
Ans. 790

Qu. Supply measured IC50 of "NCCCCCCc1ccc(CC(=O)N[C@@H](CO)C(=O)N[C@@H](CCCCN)C(=O)NCCC2CCCCC2)cc1" in your reply.
Ans. 800

Qu. Recall and state the measured IC50 for "NCCCCCc1ccc(CC(=O)N[C@@H](CO)C(=O)N[C@@H](CCCCN)C(=O)NCCC2CCCCC2)cc1" .
Ans. 990

Qu. Return the recorded IC50 value; entry: "NCCCCCCCCc1ccc(CC(=O)N[C@@H](CO)C(=O)N[C@@H](CCCCN)C(=O)NCCC2CCCCC2)cc1"
Ans. 53000

Qu. Name the recorded IC50 of the molecule listed here: "NCCCC[C@H](NC(=O)[C@H](CO)NC(=O)CCCCC#Cc1ccc(CN)cc1)C(=O)NCCC1CCCCC1"
Ans. 760

Qu. Please report IC50 for the following molecule: "NCCCC[C@H](NC(=O)[C@H](CO)NC(=O)CCCCCCc1ccc(CN)cc1)C(=O)NCCC1CCCCC1"
Ans. 1500

Qu. Report measured IC50; entry is "NCCCCCCCCCCC(=O)N[C@@H](CO)C(=O)N[C@@H](CCCCN)C(=O)NCCCC1CCCCCCC1"
Ans. 1140

Qu. Return reported IC50. Input molecule: "NCCCCCc1cccc(CC(=O)N[C@@H](CO)C(=O)N[C@@H](CCCCN)C(=O)NCCC2CCCCC2)c1"
Ans. 1800

Qu. Read the entry "NCCCC[C@H](NC(=O)[C@H](CO)NC(=O)Cc1ccc(CCc2ccc(CN)cc2)cc1)C(=O)NCCC1CCCCC1" and write its reported IC50.
Ans. 62000
